testedSystem: T1, Bzz1-1, P38822
T1 sequence (P38822 478-572, looked up): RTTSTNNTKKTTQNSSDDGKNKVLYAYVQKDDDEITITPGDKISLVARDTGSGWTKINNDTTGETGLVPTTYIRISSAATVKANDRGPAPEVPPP
protocol: SPOT array
experimentalParameters: median of control spots 4446
Rule: measured SPOT intensity below 1 gets Y; anything equal to or greater than 1 gets N.

>  <binder>
SNRRPVPRRPSQPLN

>  <answerLabel>
Y

$$$$
>  <binder>
RTRRRPPPPPIPSTQ

>  <answerLabel>
N

$$$$
>  <binder>
AIPPPVPNRPGGTTN

>  <answerLabel>
N

$$$$
>  <binder>
VSKLRSPNTPRRLRK

>  <answerLabel>
Y

$$$$
>  <binder>
DAPASKPSVPPRNYF

>  <answerLabel>
Y

$$$$
>  <binder>
EQEEIAPSLPSRNSI

>  <answerLabel>
Y

$$$$
>  <binder>
RRSKSLPITPKSIFN

>  <answerLabel>
Y

$$$$
>  <binder>
PPIPIVPSSPAPPLP

>  <answerLabel>
Y

$$$$
>  <binder>
YLTRPLPSTPNEDSR

>  <answerLabel>
Y

$$$$
>  <binder>
SSSSSPPPLPTRRDH

>  <answerLabel>
N

$$$$
